- target.or.test.system: MycC (Homo sapiens)
- Construct: endogenous in cells; host or cells: L363
- Sequence (P01106 whole entry): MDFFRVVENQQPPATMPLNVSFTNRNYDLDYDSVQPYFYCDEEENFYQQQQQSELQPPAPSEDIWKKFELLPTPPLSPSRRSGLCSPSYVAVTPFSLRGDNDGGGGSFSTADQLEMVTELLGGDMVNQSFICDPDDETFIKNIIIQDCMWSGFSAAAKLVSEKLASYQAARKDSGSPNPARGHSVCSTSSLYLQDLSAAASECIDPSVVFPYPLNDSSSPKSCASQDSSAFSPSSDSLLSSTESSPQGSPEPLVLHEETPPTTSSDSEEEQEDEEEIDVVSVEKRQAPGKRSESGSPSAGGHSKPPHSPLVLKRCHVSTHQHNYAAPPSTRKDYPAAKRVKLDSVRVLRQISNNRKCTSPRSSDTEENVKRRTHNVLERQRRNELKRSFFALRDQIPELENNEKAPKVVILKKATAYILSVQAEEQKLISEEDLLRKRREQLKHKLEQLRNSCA
- method.description: Degradation of MycC protein in L363 cells, JESS/Western blot of lysates
- Assay type: cell-based
- protocol.conditions: L-363, 24 h, L-363 cells, 24 h, 0.5 μM; read-out: % Degradation of MycC (L-363) 24 h, 0.5 μM
property: Dmax at 0.5 µM

## Input Give me measured Dmax at 0.5 µM, please, for this molecule: COC1CN(CC23CC(C2)N(c2nccc(Nc4cc(C5CCCC5)[nH]n4)n2)C3)C1 [Compound 177]
## Output < 20%

## Input Give me measured Dmax at 0.5 µM, please, for this molecule: c1cc(Nc2cc(C3CC3)[nH]n2)nc(N2CC3(CNC3)C2)n1 [Compound 6]
## Output < 20%

## Input Give me measured Dmax at 0.5 µM, please, for this molecule: NCC12CCC(C1)N(c1nccc(Nc3cc(C4CC4)[nH]n3)n1)C2 (centres unmarked) [Compound 113]
## Output 80 to 100%

## Input Give me measured Dmax at 0.5 µM, please, for this molecule: NC[C@@H]1CN(c2nccc(Nc3cc(C4CC4)[nH]n3)n2)C[C@@H]1F [Compound 122-1]
## Output 20 to 49%

## Input Give me measured Dmax at 0.5 µM, please, for this molecule: CNCCCN(C)c1nccc(Nc2cc(C3CC3)[nH]n2)n1 [Compound 101]
## Output 20 to 49%

## Input Give me measured Dmax at 0.5 µM, please, for this molecule: CC(N)C1CCCN(c2nccc(Nc3cc(C4CC4)[nH]n3)n2)C1 (single isomer, unassigned) [Compound 159]
## Output 20 to 49%

## Input Give me measured Dmax at 0.5 µM, please, for this molecule: NC[C@H]1CN(c2nccc(Nc3cc(C4CCCC4)[nH]n3)n2)CCO1 [Compound 187]
## Output < 20%

## Input Give me measured Dmax at 0.5 µM, please, for this molecule: CNCC12CC(C1)N(c1nccc(Nc3cc(C4CC4)[nH]n3)n1)C2 [Compound 14]
## Output 20 to 49%
